src = patent US20060160756A1

assay: Concentrations of dofediquar in plasma and tumor tissue after single oral administration in colon 26-bearing mice; format: in vivo; settings: single oral 200 mg/kg

molecule | AUC, Plasma / µg·h/mL
O=C(C(c1ccccc1)c1ccccc1)N1CCN(CC(O)COc2cccc3ncccc23)CC1 (stereo not shown) | 368

---

assay: Concentrations of dofediquar in plasma and tumor tissue after single oral administration in colon 26-bearing mice; assay type: in vivo; conditions: single oral 200 mg/kg
measure name: AUC, Tumor (µg·h/g)

compound | recorded value
O=C(C(c1ccccc1)c1ccccc1)N1CCN(CC(O)COc2cccc3ncccc23)CC1 (stereo not shown) | 376
